- test-details: NCI Yeast Anticancer Drug Screen. Data for the bub3 strain (AID 167)
- condition-context: S. cerevisiae bub3 mutant strain, at 50.0 µM, active compounds read high
This is part of a sample that, as a whole, favours compounds with a hit. Of some 79,000 tested, about 15% had one in any assay.
recorded-metric: growth inhibition (%)
Please reply with the bare figure in % and do not write the unit itself.

Solved entries:
N#CC(CC(=O)O)C(c1cccc2ccccc12)c1cccc2ccccc12 (centres undefined) :: 98.5
O=C(c1ccc(Br)cc1)C1N=NCC1c1ccccc1 (centres undefined) :: 86.3
Cc1ccc(NC(=S)SCc2ccc(Cl)cc2)cc1Br :: 92.3

Consider the additional compound presented here.
Lookup: Quick check: growth inhibition of CC(C)C(Sc1nc(-c2ccccc2)c(-c2ccccc2)[nH]1)C(=O)NN (centres undefined) ?
Found: 89

###

- test-details: NCI Yeast Anticancer Drug Screen. Data for the mlh1 rad18 strain (AID 175)
- condition-context: S. cerevisiae mlh1 rad18 strain growth inhibition; at 50.0 µM; active compounds read high
The panel holds about 79,000 compounds, 15% with a hit somewhere; the sample as a whole holds those more often.
recorded-metric: growth inhibition (%)
Please reply with the bare figure in % and do not write the unit itself.

Solved entries:
CN(C)C1CCC2C(=C1OC(=O)c1ccccc1)C=Cc1ccccc12 (stereo not given) :: 67.5
COC1=C(/C(=N/Nc2ccc([N+](=O)[O-])cc2[N+](=O)[O-])c2ccccc2)COC1=O :: 4.9
Cc1c(C[n+]2cc3ccccc3cc2/C=N/O)ccc2ccccc12 :: 16.8
CC(C)C(Sc1nc(-c2ccccc2)c(-c2ccccc2)[nH]1)C(=O)NN (stereo not given) :: 89.4

Lookup: Quick check: growth inhibition of O=C(CC1CCCC(CC(=O)c2ccccc2)N1CCc1ccccc1)c1ccccc1 (stereo not given) ?
Found: 89.2

###

- test-details: NCI Yeast Anticancer Drug Screen. Data for the rad50 strain (AID 155);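 note: 0% = growth of vehicle-only cultures of the same strain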
- condition-context: S. cerevisiae rad50 strain growth inhibition; at 50.0 µM; active compounds read high
Compounds without any hit were thinned out: in the full panel of roughly 79,000, 15% have a hit.
Here, each record is paired with measured growth inhibition data.
Please reply with the bare figure in % and do not write the unit itself.

C=CCNC(=O)c1ccccc1C(=O)O :: 63.2
O=c1[nH]n(CCc2ccccn2)c(=O)c(Cl)c1Cl :: 9.25
c1ccc(Oc2ccc(Nc3c4ccccc4nc4ccccc34)cc2)cc1 :: 45.9
Clc1ccc2nc(CCSCCc3nc4ccc(Cl)cc4[nH]3)[nH]c2c1 :: 87.8
C1=CC2OC1c1cc3ccccc3cc12 :: 87.5

Lookup: Quick check: growth inhibition of CC(O[Si](C)(C)C(C)(C)C)C(=O)Sc1ccccn1 (stereo unspecified) ?
Found: 95.3

###

- test-details: NCI Yeast Anticancer Drug Screen. Data for the mlh1 rad18 strain (AID 175)
- condition-context: S. cerevisiae mlh1 rad18 strain growth inhibition; at 50.0 µM; active compounds read high
Compounds without any hit were thinned out: in the full panel of roughly 79,000, 15% have a hit.
Label rule, in plain words: growth inhibition of 70% and up is t, under 70% is f.

Solved entries (count: 3):
O=S(=O)(N/N=C/c1ccc(Cl)cc1Cl)c1ccccc1 :: f
CC1=C(C(=O)Nc2ccccc2C)C(c2ccccc2F)C(C(=O)Nc2ccccc2C)=C(C)N1 :: f
CNc1cc(SC)nc(N)n1 :: t

Lookup: Determine whether measured growth inhibition meets or exceeds 70% for Cc1nn(-c2ccc(Cl)cc2)c2nc(N)nc(N)c12
Found: f

Lookup: What about this compound? C1CCN(c2nc(N3CCOCC3)c3[nH]c(N4CCCCC4)nc3n2)CC1
Found: f

Lookup: What about this compound? CC(C)CCC(C)(C)c1cc(O)ccc1O
Found: t

Lookup: What about this compound? CCN(CC)c1ccc(NC(C(=O)c2ccccc2)c2ccc3c(c2)OCO3)cc1 (stereo not drawn)
Found: f

Lookup: What about this compound? Cc1ccsc1C(=S)Nc1ccc(Cl)c(/C=N/OC(C)C)c1
Found: f

Lookup: What about this compound? Clc1ccc(CN2COc3c(ccc4ccccc34)C2)cc1
Found: f

Lookup: What about this compound? N#CC(C(=O)CCc1nc2ccccc2[nH]1)c1c(Cl)cccc1Cl (stereo not drawn)
Found: f

Lookup: What about this compound? Cn1c(=O)c2c(ncn2-c2ccncc2)n(C)c1=O
Found: f

Lookup: What about this compound? O=C(CNc1cccc(Cl)c1)Nn1c(-c2ccccc2)nc2ccccc2c1=O
Found: t

Lookup: What about this compound? CS(=O)(=O)OCCN(CCOS(C)(=O)=O)c1ccc(N=Nc2ccccc2)cc1
Found: t

Lookup: What about this compound? CC(C)(C)Oc1ccc(CC(NC(=O)OCC2c3ccccc3-c3ccccc32)C(=O)O)cc1 (stereo not drawn)
Found: t

Lookup: What about this compound? Oc1ccc(C2CCCCC2)c(O)c1
Found: f
